Hey, just so you know, these numbers are from paper PMC3684770.

EC50 values, listed per item
- Test system: Nrf2-ARE pathway
- assay protocol: ARE reporter assay in CHO 4xARE-TK-GFP cells (Spectrum library hits)
- cond: Cricetulus griseus
Structures can show the parent of a compound that is named as a salt.
Quick note: give the figure in µM, leave out the unit.

# compound, EC50 / µM
rows = [
    ("CC(=O)OC1CC[C@@]2(C)C(CC[C@H]3[C@@H]4CC=C(C(C)=O)[C@@]4(C)C(=O)C[C@@H]32)C1 (some centres unmarked)", 2.98),
    ("Cc1[nH]c2ccccc2c1CN(C)C", 3),
    ("Oc1ccc(O)cc1 [Hydroquinone, reference compound]", 3.07),
    ("CC(=O)Oc1ccc(O)cc1", 2.91),
    ("O=C(CCBr)N1CCN(C(=O)CCBr)CC1 [Pipobroman, reference compound]", 10),
    ("CC1(C)C2CC(=O)O[C@@]3(C)C4=CC(=O)O[C@@H](c5ccoc5)[C@]4(C)CCC3[C@@]2(C)C=C[C@H]1O (some centres unmarked)", 11.1),
]

Inquiry: Any idea what EC50 was measured for CN1CCc2cccc3c2[C@H]1Cc1ccc(O)c(O)c1-3 [Apomorphine hydrochloride, reference compound] ?
Reply text: 25.9

====

- Tested on: 1321N1 astrocyte cell line
- assay protocol: 1321N1 oxidative stress assay (serum withdrawal, DCF)
- cond: minimum dose at which toxicity was observed
observable: 1321N1 oxidative stress assay Toxic dose

# compound, 1321N1 oxidative stress assay Toxic dose
rows = [
    ("CC(=O)Oc1ccc(O)cc1 [4-Acetoxyphenol]", "none"),
    ("CCCCCc1c2c(cc(O)c1C(=O)O)OC(=O)c1c(cc(OC)cc1C(=O)CCCC)O2 [Lobaric acid]", "none"),
    ("Cc1cc(O)c(C)c(O)c1C(=O)O [3-Methylorsellinic acid]", "none"),
    ("CC1(C)C(=O)C=C[C@]2(C)[C@H]3CC[C@@]4(C)[C@H](c5ccoc5)OC(=O)[C@H]5O[C@]54[C@]3(C)[C@H](O)C[C@@H]12 [Deacetylgedunin]", "10 µM"),
    ("Cc1[nH]c2ccccc2c1CN(C)C [2-Methyl gramine]", "none"),
]

Inquiry: Please give the measured 1321N1 oxidative stress assay Toxic dose for this compound: COc1ccc(/C=C/C(=O)c2ccccc2)cc1 [4-Methoxychalcone]
Reply text: None

Inquiry: Looking for the measured 1321N1 oxidative stress assay Toxic dose of C=CC(C1=CC(=O)C=CC1=O)c1ccccc1 (stereo not shown) [Dalbergione] , can you help?
Reply text: None

====

In this section, each of the compounds is paired with its reported NSC34 oxidative stress assay Toxic dose.
- System: NSC34 cells
- assay protocol: NSC34 oxidative stress assay (serum withdrawal, DCF)
- cond: minimum dose at which toxicity was observed
Supply the numeric figure in µM, leaving out any unit text.

# compound, target entity, observed
measured = [
    ("ClC1=C(Cl)C2(Cl)C3C(Cl)C(Cl)CC3C1(Cl)C2(Cl)Cl (centres unmarked)", "NSC34 cells", 3),
]

Inquiry: Could you tell me which NSC34 oxidative stress assay Toxic dose is on file for C=C1C(=O)O[C@H]2[C@H]1CC/C(C)=C/CC[C@@]1(C)O[C@@H]21 [Parthenolide] ?
Reply text: 1

Inquiry: Please report the recorded NSC34 oxidative stress assay Toxic dose for `O=C(CC[N+](=O)[O-])OC[C@H]1O[C@@H](O)[C@H](OC(=O)CC[N+](=O)[O-])[C@@H](OC(=O)CC[N+](=O)[O-])[C@@H]1OC(=O)CC[N+](=O)[O-]` .
Reply text: 10

Inquiry: Could you share which NSC34 oxidative stress assay Toxic dose value was measured for CC(=O)O[C@@H]1CC2C(C)(C)C=CC(=O)[C@]2(C)C2CC[C@@]3(C)[C@H](c4ccoc4)OC(=O)C4OC43[C@@]21C (some centres unmarked) ?
Reply text: 1

====

pEC50 by entry:
- System: Nrf2-ARE pathway
- assay protocol: ARE reporter assay in CHO 4xARE-TK-GFP cells (Spectrum library hits)
- cond: Cricetulus griseus
// pEC50: -log10(molar conc.)

Reference set (3 entries):
# compound, pEC50
data = [
    ("CCCCCc1c2c(cc(O)c1C(=O)O)OC(=O)c1c(cc(OC)cc1C(=O)CCCC)O2 [Lobaric acid]", 4.77),
    ("CCc1cccc(CC)c1N(COC)C(=O)CCl [Alachlor]", 5.48),
    ("COc1cccc(O)c1O [3-Methoxycatechol]", 4.81),
]

--- query ---
Inquiry: I would be grateful if you could share the reported pEC50 for Cc1cc(O)c(C)c(O)c1C(=O)O [3-Methylorsellinic acid] .
Reply text: 5.02

====

- System: NSC34 cells
- assay protocol: NSC34 oxidative stress assay (serum withdrawal, DCF)
- cond: minimum dose at which toxicity was observed
observable: NSC34 oxidative stress assay Toxic dose

# compound, observed
data = [
    ("COc1ccc2c(c1)OC/C(=C/c1ccc(OC)c(OC)c1)C2=O [Sappanone A trimethyl ether]", "none"),
    ("CC1(C)C(=O)C=C[C@]2(C)[C@H]3CC[C@@]4(C)[C@H](c5ccoc5)OC(=O)[C@H]5O[C@]54[C@]3(C)[C@H](O)C[C@@H]12 [Deacetylgedunin]", "None"),
    ("C=C(C)/C=C1/C=CC(=O)C(C)=C1 [Retusoquinone]", "none"),
    ("C=CC(C1=CC(=O)C(OC)=CC1=O)c1ccccc1 (stereo not shown) [4-Methoxydalbergione]", "none"),
]
